System: IgE antibodies from patients
assay.details: Wheat epitope mapping (2): overlapping 10-amino-acid peptide fragments shifted by one amino acid
Assay type: binding, human
condition.context: serum of patient P24 (WDEIA); partial sequence
assay.readout: Epitope sequence binding to IgE antibody, rank of the sequence

Query: I'm curious: which Epitope sequence binding to IgE antibody, rank of the sequence was measured for 2616 (AKPLL; REGION 1..5: note = epitope) [compound 2616] tested on IgE antibodies from patients?
Response: Key

Query: # repeat for 2617 (SKRV; REGION 1..4: note = epitope) [compound 2617]
Response: Key

Query: # repeat for 2564 (QLVQQ; REGION 1..5: note = epitope) [compound 2564]
Response: Key
